Target: SARS-CoV-2 M^pro (Severe acute respiratory syndrome coronavirus 2)
Assay: biochemical
Assay type: biochemical
Details: 100 μM compound; buffer with 5 mM DTT; read-out: SARS-CoV-2 M^pro enzyme inhibition (%) 100 μM
METRIC_NAME: inhibition at 100 µM (%)

compound="O=c1cc(-c2ccccc2)oc2cc(O)c(O)c(O)c12 [Compound 4, baicalein, reference compound]" subject_of_test="SARS-CoV-2 M^pro (Severe acute respiratory syndrome coronavirus 2)" unit_annotation=% value_observed=90
compound=Cn1c(=O)c2c(nc(SCC(=O)Nc3ccc4c(c3)OCO4)n2Cc2cccc(Cl)c2)n(C)c1=O subject_of_test="SARS-CoV-2 M^pro (Severe acute respiratory syndrome coronavirus 2)" unit_annotation=% value_observed=7.3
compound="O=C(CCCN1C(=O)c2ccccc2N2C(=O)c3ccccc3C12)NCCc1cnc[nH]1 (stereo not shown)" subject_of_test="SARS-CoV-2 M^pro (Severe acute respiratory syndrome coronavirus 2)" unit_annotation=% value_observed=59.7
compound=CC(C)(O)CCc1c(-c2ccc(O)cc2O)oc2c3c(cc(O)c2c1=O)OC(C)(C)C=C3 subject_of_test="SARS-CoV-2 M^pro (Severe acute respiratory syndrome coronavirus 2)" unit_annotation=% value_observed=71.2
